All figures here come from the supplement of paper PMC4862054.

# System: MFM-223
# protocol summary: drug sensitivity score (DSS), CellTiter-Blue viability (DSS (AUC-based score)); higher = stronger viability inhibition; extreme values may be limits of the assay
# measurement conditions: incubation time: 72 h
test readout: drug sensitivity score
Output spec: single numeric token, no unit.

Known drug sensitivity score results, listed for orientation:
- molecule: "O=C1CN2Cc3c(ccc(Cl)c3Cl)N=C2N1 [Anagrelide]"
  drug sensitivity score: 0
- molecule: "COc1cc(F)c(F)c(Nc2ccc(I)cc2F)c1NS(=O)(=O)C1(C[C@H](O)CO)CC1"
  drug sensitivity score: 5.52
- molecule: "Cc1sc2c(c1C)C(c1ccc(Cl)cc1)=N[C@@H](CC(=O)OC(C)(C)C)c1nnc(C)n1-2 [(+)JQ1]"
  drug sensitivity score: 10.1
- molecule: "Oc1ncnc2[nH]ncc12"
  drug sensitivity score: 0

Pending molecule:
stdin: Name the recorded drug sensitivity score for `CC[C@@H]1C(=O)OC[C@@H]1Cc1cncn1C` .
stdout: 0
